test: Biodistribution studies in BALB/c mice; assay type: in vivo; settings: female, mouse, iv, total radioactivity; Femur, 60 min p.i., healthy BALB/c mice, 0.1 nmol i.v.; read-out: Biodistribution data, Femur
ASSAY READOUT: tissue uptake at 1 h
I'd appreciate it if you included the unit after the number.

# input Bench note: what tissue uptake at 1 h did NC(=O)CNC(=O)CNC(=O)[C@H](CCCCNC(=O)CCCCc1cn(C2O[C@H](CO)[C@H](O)[C@H](O)[C@H]2O)nn1)NC(=O)CNC(=O)CNC(=O)[C@H](CCCCNC(=O)CCCCc1cn(C2O[C@H](CO)[C@H](O)[C@H](O)[C@H]2O)nn1)NC(=O)CNC(=O)CNC(=O)[C@H](CCCCNC(=O)CCCCc1cn(C2O[C@H](CO)[C@H](O)[C@H](O)[C@H]2O)nn1)NC(=O)CCCNC(=O)CC[C@H](C(=O)O)N1CCN(CC(=O)O)CCN(CC(=O)O)CC1 (stereo partly shown) [[68Ga]Ga-TriLysan, metal not drawn] show?
# output 0.11 %ID/g

----------
Test: Biodistribution studies in BALB/c mice
Assay type: in vivo
Settings: female, mouse, iv, total radioactivity; Heart, 30 min p.i., healthy BALB/c mice, 0.1 nmol i.v.; read-out: Biodistribution data, Heart
Protocol: For biodistribution studies 6-week-old female BALB/c mice (n=3) were injected with 0.1 nmol (100 µL, approx. 1 MBq) of labelled compound via the lateral tail vein and sacrificed after 10, 30, or 60 min by cervical dislocation. The mice were dissected, blood and organs (spleen, pancreas, stomach, intestine, liver, kidney, heart, lung, muscle and bone) were weighed and their activity measured in a γ-counter. For blocking experiments, mice were co-injected with 27.7 µmοl N-acetylgalactose.
ASSAY READOUT: tissue uptake at 0.5 h (%ID/g)
One number for each entry, in %ID/g.

# input Bench note: what tissue uptake at 0.5 h did NC(=O)CNC(=O)CNC(=O)[C@H](CCCCNC(=O)CCCCc1cn(C2O[C@H](CO)[C@H](O)[C@H](O)[C@H]2O)nn1)NC(=O)CNC(=O)CNC(=O)[C@H](CCCCNC(=O)CCCCc1cn(C2O[C@H](CO)[C@H](O)[C@H](O)[C@H]2O)nn1)NC(=O)CNC(=O)CNC(=O)[C@H](CCCCNC(=O)CCCCc1cn(C2O[C@H](CO)[C@H](O)[C@H](O)[C@H]2O)nn1)NC(=O)CCCNC(=O)CC[C@H](C(=O)O)N1CCN(CC(=O)O)CCN(CC(=O)O)CC1 (stereo partly shown) [[68Ga]Ga-TriLysan, metal not drawn] show?
# output 0.63

----------
Assay: Biodistribution studies in BALB/c mice
Type: in vivo
Details: female, mouse, iv, total radioactivity; Blood, 30 min p.i., healthy BALB/c mice, 0.1 nmol i.v.; read-out: Biodistribution data, Blood
Procedure: For biodistribution studies 6-week-old female BALB/c mice (n=3) were injected with 0.1 nmol (100 µL, approx. 1 MBq) of labelled compound via the lateral tail vein and sacrificed after 10, 30, or 60 min by cervical dislocation. The mice were dissected, blood and organs (spleen, pancreas, stomach, intestine, liver, kidney, heart, lung, muscle and bone) were weighed and their activity measured in a γ-counter. For blocking experiments, mice were co-injected with 27.7 µmοl N-acetylgalactose.
ASSAY READOUT: tissue uptake at 0.5 h (%ID/g)
One number for each entry, in %ID/g.

# input Bench note: what tissue uptake at 0.5 h did NC(=O)CNC(=O)CNC(=O)[C@H](CCCCNC(=O)CCCCc1cn(C2O[C@H](CO)[C@H](O)[C@H](O)[C@H]2O)nn1)NC(=O)CNC(=O)CNC(=O)[C@H](CCCCNC(=O)CCCCc1cn(C2O[C@H](CO)[C@H](O)[C@H](O)[C@H]2O)nn1)NC(=O)CNC(=O)CNC(=O)[C@H](CCCCNC(=O)CCCCc1cn(C2O[C@H](CO)[C@H](O)[C@H](O)[C@H]2O)nn1)NC(=O)CCCNC(=O)CC[C@H](C(=O)O)N1CCN(CC(=O)O)CCN(CC(=O)O)CC1 (stereo partly shown) [[68Ga]Ga-TriLysan, metal not drawn] show?
# output 1.6

----------
experiment: Biodistribution studies in BALB/c mice; assay type: in vivo; details: female, mouse, iv, total radioactivity; Liver, 60 min p.i., healthy BALB/c mice, 0.1 nmol i.v.; read-out: Biodistribution data, Liver
ASSAY READOUT: tissue uptake at 1 h (%ID/g)
Numbers only, in %ID/g.

# input Bench note: what tissue uptake at 1 h did NC(=O)CNC(=O)CNC(=O)[C@H](CCCCNC(=O)CCCCc1cn(C2O[C@H](CO)[C@H](O)[C@H](O)[C@H]2O)nn1)NC(=O)CNC(=O)CNC(=O)[C@H](CCCCNC(=O)CCCCc1cn(C2O[C@H](CO)[C@H](O)[C@H](O)[C@H]2O)nn1)NC(=O)CNC(=O)CNC(=O)[C@H](CCCCNC(=O)CCCCc1cn(C2O[C@H](CO)[C@H](O)[C@H](O)[C@H]2O)nn1)NC(=O)CCCNC(=O)CC[C@H](C(=O)O)N1CCN(CC(=O)O)CCN(CC(=O)O)CC1 (stereo partly shown) [[68Ga]Ga-TriLysan, metal not drawn] show?
# output 9.19
